# Measured target: T1, human EphB3 (Homo sapiens, UniProt P54753)
# T1 construct: a protein of the extracellular region of each human Eph receptor fused with the SEAP protein and the His tag; made in house; host or cells: Expi293F cells
# T1 sequence (P54753 34-559 limits assumed): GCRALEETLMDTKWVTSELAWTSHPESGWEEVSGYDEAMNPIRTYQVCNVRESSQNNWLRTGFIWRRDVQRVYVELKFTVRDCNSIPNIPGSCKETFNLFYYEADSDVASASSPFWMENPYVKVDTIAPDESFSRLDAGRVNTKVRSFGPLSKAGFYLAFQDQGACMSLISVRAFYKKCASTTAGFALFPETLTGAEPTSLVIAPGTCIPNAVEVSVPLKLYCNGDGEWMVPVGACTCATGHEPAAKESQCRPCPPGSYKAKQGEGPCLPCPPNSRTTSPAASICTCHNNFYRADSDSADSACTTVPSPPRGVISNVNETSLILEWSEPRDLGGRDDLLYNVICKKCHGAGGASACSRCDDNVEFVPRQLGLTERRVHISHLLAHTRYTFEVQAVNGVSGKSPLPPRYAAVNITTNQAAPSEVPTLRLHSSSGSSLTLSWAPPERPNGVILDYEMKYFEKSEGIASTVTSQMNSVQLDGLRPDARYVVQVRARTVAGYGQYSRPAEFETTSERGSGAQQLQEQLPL
# Run description: Selectivity ELISA of humanized antibodies for human Eph receptor
# Assay type: binding
# Study conditions: coated protein 1 nM
Observed property: hEphB3-SEAP-: absorbance at 450 nm, percentage with respect to hEphA4-SEAP-His as 100% (%)
Give the number; % is assumed, so skip it.

[[record]]
molecule = "93 (antibody, V domains shown, constant regions without entry; synthetic humanized antibody light chain variable region sequence; synthetic humanized antibody heavy chain variable region sequence) VL: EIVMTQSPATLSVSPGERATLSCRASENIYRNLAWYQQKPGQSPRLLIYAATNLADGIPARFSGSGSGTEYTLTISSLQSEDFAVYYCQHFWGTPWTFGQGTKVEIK VH: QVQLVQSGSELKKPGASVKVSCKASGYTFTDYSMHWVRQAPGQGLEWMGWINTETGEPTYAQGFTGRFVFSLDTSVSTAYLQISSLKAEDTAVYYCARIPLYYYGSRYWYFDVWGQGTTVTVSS"
scale_unit = "%"
measured_result = 5.1


INPUT: Reported hEphB3-SEAP-: absorbance at 450 nm, percentage with respect to hEphA4-SEAP-His as 100%, molecule 155 (antibody, V domains shown, synthetic humanized antibody heavy chain variable region sequence; synthetic humanized antibody light chain variable region sequence) VH: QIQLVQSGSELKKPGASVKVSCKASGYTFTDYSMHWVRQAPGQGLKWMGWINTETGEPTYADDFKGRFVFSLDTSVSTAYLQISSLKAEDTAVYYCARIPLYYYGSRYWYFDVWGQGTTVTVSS VL: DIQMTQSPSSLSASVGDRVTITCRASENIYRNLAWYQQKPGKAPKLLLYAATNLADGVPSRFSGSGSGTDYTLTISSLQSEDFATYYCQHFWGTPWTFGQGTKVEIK : ____
OUTPUT: 5.5

INPUT: For 94 (antibody, V domains shown, constant regions without entry; synthetic humanized antibody light chain variable region sequence; synthetic humanized antibody heavy chain variable region sequence) VL: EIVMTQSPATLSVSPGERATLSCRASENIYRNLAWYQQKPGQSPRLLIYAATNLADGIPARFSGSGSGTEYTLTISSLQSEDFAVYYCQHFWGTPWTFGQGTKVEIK VH: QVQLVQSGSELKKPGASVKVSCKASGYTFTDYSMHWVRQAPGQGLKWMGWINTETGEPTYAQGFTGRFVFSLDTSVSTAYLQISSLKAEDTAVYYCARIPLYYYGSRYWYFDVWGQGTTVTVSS , what is its reported hEphB3-SEAP-: absorbance at 450 nm, percentage with respect to hEphA4-SEAP-His as 100%?
OUTPUT: 6.7

INPUT: Please look up its hEphB3-SEAP-: absorbance at 450 nm, percentage with respect to hEphA4-SEAP-His as 100%: 145 (antibody, V domains shown, synthetic humanized antibody heavy chain variable region sequence; synthetic humanized antibody light chain variable region sequence) VH: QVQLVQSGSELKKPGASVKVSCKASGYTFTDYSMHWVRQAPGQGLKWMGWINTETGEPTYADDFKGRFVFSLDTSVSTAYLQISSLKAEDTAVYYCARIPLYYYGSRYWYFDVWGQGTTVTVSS VL: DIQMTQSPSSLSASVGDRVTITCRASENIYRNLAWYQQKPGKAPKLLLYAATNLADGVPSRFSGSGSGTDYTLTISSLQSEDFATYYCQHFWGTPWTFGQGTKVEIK
OUTPUT: 6.7

INPUT: Need hEphB3-SEAP-: absorbance at 450 nm, percentage with respect to hEphA4-SEAP-His as 100% of 135 (antibody, V domains shown, synthetic humanized antibody heavy chain variable region sequence; synthetic humanized antibody light chain variable region sequence) VH: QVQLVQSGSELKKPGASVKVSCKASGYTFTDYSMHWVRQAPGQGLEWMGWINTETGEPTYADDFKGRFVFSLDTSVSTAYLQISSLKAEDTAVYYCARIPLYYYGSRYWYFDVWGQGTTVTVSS VL: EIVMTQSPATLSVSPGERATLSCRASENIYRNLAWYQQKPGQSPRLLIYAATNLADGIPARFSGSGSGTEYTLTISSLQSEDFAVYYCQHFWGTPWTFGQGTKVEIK , thanks.
OUTPUT: 5.0

INPUT: Can you share its hEphB3-SEAP-: absorbance at 450 nm, percentage with respect to hEphA4-SEAP-His as 100%? I mean this molecule: 138 (antibody, V domains shown, synthetic humanized antibody heavy chain variable region sequence; synthetic humanized antibody light chain variable region sequence) VH: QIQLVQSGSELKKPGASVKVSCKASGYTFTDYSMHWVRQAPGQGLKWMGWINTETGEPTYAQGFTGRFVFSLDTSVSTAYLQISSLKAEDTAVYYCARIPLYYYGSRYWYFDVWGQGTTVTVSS VL: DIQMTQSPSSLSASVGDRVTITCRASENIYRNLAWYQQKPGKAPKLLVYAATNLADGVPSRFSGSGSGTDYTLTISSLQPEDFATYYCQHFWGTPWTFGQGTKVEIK
OUTPUT: 5.1

INPUT: Param item = 73 (antibody, V domains shown, synthetic humanized antibody heavy chain variable region sequence; synthetic humanized antibody light chain variable region sequence) VH: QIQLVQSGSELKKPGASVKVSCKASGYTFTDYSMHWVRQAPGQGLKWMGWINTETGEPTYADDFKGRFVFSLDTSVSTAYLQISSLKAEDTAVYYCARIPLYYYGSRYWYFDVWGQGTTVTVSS VL: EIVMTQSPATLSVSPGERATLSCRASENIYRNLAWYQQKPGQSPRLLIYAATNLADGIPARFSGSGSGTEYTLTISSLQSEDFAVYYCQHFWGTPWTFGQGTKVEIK ; retrieve measured hEphB3-SEAP-: absorbance at 450 nm, percentage with respect to hEphA4-SEAP-His as 100%.
OUTPUT: 5.8
